# Test system: IGROV1 ovarian
# EXPERIMENTAL_PROTOCOL: NCI tumour cell line growth inhibition, 48 h; in the data active means GI50 below about 0.43 µM; inactive means the rest
Log the outcome using a class from active, inactive

CN(C)C1CN(C(=O)c2cc(-c3ccc4ncnc(N5CCc6cc(F)c(Cl)cc65)c4c3)cnc2N)C1
active
COC(=O)c1c2c(c(C)[n+]([O-])c1C)C(=O)C(NCc1ccc(O)cc1)=CC2=O
inactive
O=C1OCC2=C1C(c1cccc(Cl)c1)c1cc3c(cc1N2CCO)CCC3 (stereo unspecified)
active
Nc1n[nH]c2ccc([C@@H]3Nc4ccc5cn[nH]c5c4[C@H]4C5CCC(C5)[C@@H]34)cc12 (stereo partly specified)
inactive
O=C(NN1C(=O)CSC1c1c(Cl)cccc1Cl)C(O)c1ccccc1 (stereo unspecified)
inactive
CC(=O)Nc1cc2c3c(cccc3c1)-c1ccccc1-2
inactive

[Q] Each molecule tested received a call. Report the one for O=C(/C=C/C=C/c1ccc2c(c1)OCO2)N/N=C\c1ccc(O)cc1O .
[A] inactive

[Q] Each molecule tested received a call. Report the one for O=C1c2ccc3c4c(ccc(c24)C(=O)N1CCNCc1ccccc1)C(=O)N(CCNCc1ccccc1)C3=O .
[A] inactive

[Q] Each molecule tested received a call. Report the one for Fc1ccc(Nc2nc3nonc3nc2Nc2ccc(I)cc2)cc1 .
[A] active

[Q] Each molecule tested received a call. Report the one for C[C@]12CC[C@@H]3c4ccc(OC(=O)N(CCCl)CCCl)cc4CC[C@H]3[C@@H]1CC[C@@H]2OP(=O)(O)O .
[A] inactive

[Q] Each molecule tested received a call. Report the one for [CH3][Hg]/[N]=C(/N)NC#N .
[A] inactive

====

Here, each record is paired with measured GI50 data.
# Tested on: PC-3 prostate
# EXPERIMENTAL_PROTOCOL: NCI tumour cell line growth inhibition, 48 h

COC(=O)c1cccc(NC(=O)c2ccc(NC3=C(Cl)C(=O)N(Cc4ccccc4)C3=O)cc2)c1
15.1 µM
CC(=O)Nc1cc2c3c(cccc3c1)-c1ccccc1-2
14.8 µM
O=C(NN1C(=O)CSC1c1c(Cl)cccc1Cl)C(O)c1ccccc1 (stereo not given)
29.6 µM
COc1cc(C(=O)NN=C2c3ccccc3-c3ccccc32)cc(OC)c1OC
2.72 µM

# evaluate next
Field GI50 (entry COc1c(B(O)O)cccc1-c1nc2c(F)cc3n[nH]c(C)c3c2c2c1CCCC2 ) reads 1.46 µM

====

# Test system: T-47D breast
# EXPERIMENTAL_PROTOCOL: NCI tumour cell line growth inhibition, 48 h
PROPERTY_NAME: GI50

O=c1/c(=C\c2ccc(Br)cc2)sc2n1C(c1ccc(Br)cc1)C1=C(N=2)c2ccc3ccccc3c2OCC1 (stereo not given)
> 100 µM
COc1ccc(/C=C/C(=O)/C=C(O)/C=C/c2ccc(OC)c(OC)c2)cc1OC
76.9 µM
COc1cc2c(cc1OCCCN1CCN(C(=S)SCCC(C#N)(c3ccccc3)c3ccccc3)CC1)N=C[C@@H]1CCCN1C2=O
1.58 µM

Field GI50 (entry O=C(CCN1CCCN(c2cnc3ccccc3n2)CC1)c1csc2ccccc12 ) reads 11 µM

Field GI50 (entry COc1c(B(O)O)cccc1-c1nc2c(F)cc3n[nH]c(C)c3c2c2c1CCCC2 ) reads 1.33 µM

====

# System: HCT-116 colon
# EXPERIMENTAL_PROTOCOL: NCI tumour cell line growth inhibition, 48 h; in the data active means GI50 below about 0.43 µM; inactive means the rest
Log the outcome using a class from active, inactive

[Q] Each molecule tested received a call. Report the one for CN(C)C1CN(C(=O)c2cc(-c3ccc4ncnc(N5CCc6cc(F)c(Cl)cc65)c4c3)cnc2N)C1 .
[A] inactive

[Q] Each molecule tested received a call. Report the one for O=C1OCC2=C1C(c1cccc(Cl)c1)c1cc3c(cc1N2CCO)CCC3 (stereo unspecified) .
[A] active

[Q] Each molecule tested received a call. Report the one for CN(C)CCCCNc1ccc(NCCCCN(C)C)c2c1C(=O)c1c(O)ccc(O)c1C2=O .
[A] inactive

[Q] Each molecule tested received a call. Report the one for Cc1cc(C)c2c(c1)N(C)c1ncnc(-n3cnc4cc(C)ccc43)c1CC2C (stereo unspecified) .
[A] inactive

[Q] Each molecule tested received a call. Report the one for CC[C@@]1(O)C(=O)OCc2c1cc1n(c2=O)Cc2c-1nc1cc(F)c(C)c3c1c2[C@@H](NC(=O)CO)CC3 .
[A] active

[Q] Each molecule tested received a call. Report the one for COc1cc(C)[nH]c(=O)c1CNC(=O)c1c(C)n([C@H](C)C2CCN(CC(F)(F)F)CC2)c2ccccc12 .
[A] inactive

[Q] Each molecule tested received a call. Report the one for Nc1n[nH]c2ccc([C@@H]3Nc4ccc5cn[nH]c5c4[C@H]4C5CCC(C5)[C@@H]34)cc12 (stereo partly specified) .
[A] inactive

====

# System: IGROV1 ovarian
# EXPERIMENTAL_PROTOCOL: NCI tumour cell line growth inhibition, 48 h
Here, each record is paired with measured TGI data.

Study these solved cases before continuing.
O=C(Cc1nc2ccccc2o1)C(=O)Nc1ccc(Cl)cc1Cl
> 100 µM
O=c1c2cc([N+](=O)[O-])ccc2n2n1CCCCC2
> 100 µM
c1cc(CSc2ncnc3nc[nH]c23)ccn1
> 100 µM
[O-][N+]1=C2CCC/C(=N/O)C2(O)C2CCCCC21N1CCOCC1 (stereo not given)
> 100 µM
COc1ccc(CNc2nc3cc(C(F)(F)F)ccc3nc2C(=O)O)cc1
> 100 µM
COc1cc(N2CCC(N)CC2)ccc1Nc1ncc(Cl)c(-c2c[nH]c3ccccc23)n1
2.23 µM
O=C(Nc1cccc(-n2cc(-c3ccncc3)c(-c3ccc(Cl)c(O)c3)n2)c1)Nc1ccc(Cl)c(Cl)c1
> 32.5 µM
CCN(CC)C(=O)CC12CCCCC1=Nc1ccccc12 (stereo not given)
> 100 µM
CC(C)C(/C=C/c1ccc(Cl)cc1)=N\NC(=O)N/N=C(/C=C/c1ccc(Cl)cc1)C(C)C
94.7 µM

# evaluate next
Field TGI (entry O=C(OCC(OC(=O)c1ccccc1)C1CC(C2(O)CCCCC2)C(=O)O1)c1ccccc1 (stereo not given) ) reads > 25 µM

====

# Tested on: K-562 leukemia
# EXPERIMENTAL_PROTOCOL: NCI tumour cell line growth inhibition, 48 h
PROPERTY_NAME: TGI

C=C(C)CCC(O)[C@](C)(O)[C@H]1[C@H](O)C[C@@]2(C)[C@@H]3CCc4c(cc(OC5OC(CO)C(O)C(O)C5O)c(O)c4C)C3(C)C(=O)C[C@]12C (stereo partly specified)
> 100 µM
CCn1ncc(N=O)c1N
> 100 µM
CC1C(O)=C(O)c2ccccc2N1O (stereo unspecified)
> 100 µM

Per the reported K-562 leukemia data, Clc1ccccc1C1SCc2nc3ccccc3n21 (stereo unspecified) has TGI of > 100 µM

Per the reported K-562 leukemia data, Cc1c(C#N)c2nc3ccccc3n2c(=O)/c1=C/Nc1ccc(Cl)cc1 has TGI of > 100 µM

Per the reported K-562 leukemia data, COc1ccc2nc3ccccc3c(NCCN(CCCl)CCCl)c2c1 has TGI of 4.92 µM

====

# Tested on: CAKI-1 renal
# EXPERIMENTAL_PROTOCOL: NCI tumour cell line growth inhibition, 48 h; in the data active = GI50 below about 0.43 µM; inactive = the rest
Log the outcome using a class from active, inactive

COc1ccc(/C=C/C(=O)/C=C(O)/C=C/c2ccc(OC)c(OC)c2)cc1OC
inactive

[Q] Each compound tested received a call. Report the one for COc1cc(N(CCCl)CCCl)ccc1/C=N\NC(=O)c1cccnc1 .
[A] inactive

[Q] Each compound tested received a call. Report the one for CC/C(=C(/c1ccc(OCCN(C)C)cc1)c1ccc(OC(=O)CCCCCCCCC(=O)c2c(C)[nH]c(/C=C3\N=C(c4ccc[nH]4)C=C3OC)c2C)cc1)c1ccccc1 .
[A] inactive

[Q] Each compound tested received a call. Report the one for O=C(Nc1cccc(-n2cc(-c3ccncc3)c(-c3ccc(Cl)c(O)c3)n2)c1)Nc1ccc(Cl)c(Cl)c1 .
[A] inactive

[Q] Each compound tested received a call. Report the one for [CH3][Hg]/[N]=C(/N)NC#N .
[A] inactive

[Q] Each compound tested received a call. Report the one for Cn1c(=O)c(Oc2ccc(F)cc2F)cc2cnc(NCC(C)(C)O)nc21 .
[A] inactive

[Q] Each compound tested received a call. Report the one for Fc1ccc(Nc2nc3nonc3nc2Nc2ccc(I)cc2)cc1 .
[A] active

[Q] Each compound tested received a call. Report the one for CCCCCCCCCCCCCCCCCCOc1ccccc1COP(=O)(O)OOCC[N+](C)(C)C .
[A] inactive

[Q] Each compound tested received a call. Report the one for CCCCOC(=O)c1c(C)[nH]c(/C=C2\N=C(c3ccc[nH]3)C=C2OC)c1C .
[A] active

====

# Test system: HCT-116 colon
# EXPERIMENTAL_PROTOCOL: NCI tumour cell line growth inhibition, 48 h
Values of TGI greater than or equal to 20 µM map to YES; values below map to NO.

Below are worked cases with known answers.
Cc1cccc(N=N/C(=N\NC(=O)c2cc(Cl)ccc2O)c2ccc(N(CCC#N)CCC#N)cc2C)c1
YES
O=C(CN1CCN(C(=O)c2ccco2)CC1)Nc1ccc(Cl)cc1C(=O)c1ccccc1Cl
YES
CCc1ccccc1NC(=O)C(=O)C1C(=O)N(c2ccccc2)N=C1N (stereo not given)
YES
O=c1/c(=C\c2ccc(Br)cc2)sc2n1C(c1ccc(Br)cc1)C1=C(N=2)c2ccc3ccccc3c2OCC1 (stereo not given)
YES

[Q] Dear colleague, could you confirm whether COC(=O)[C@]12CC[C@@H](C)[C@H](C)[C@@H]1C1=CC[C@@H]3[C@@](C)(CC#N)C4=C(C[C@@]3(C)[C@]1(C)CC2)OC[C@]4(C)C=O has TGI at or above 20 µM?
[A] NO

[Q] Dear colleague, could you confirm whether CSC1=Nc2ccccc2N=C(c2ccccc2)C1 has TGI at or above 20 µM?
[A] YES

[Q] Dear colleague, could you confirm whether C#CCn1c(=O)ccn(/C(=C/C(=O)OCC)C(=O)OCC)c1=O has TGI at or above 20 µM?
[A] NO

[Q] Dear colleague, could you confirm whether COc1cc(C(c2ccc3c(c2)OCO3)C2SCCCS2)cc(OC)c1OC (stereo not given) has TGI at or above 20 µM?
[A] NO

Source: PubChem BioAssay (NCI)
